I'd be grateful if you could share measured EC50 for these entries.
# system.tested: hDP/Gqs5 (Homo sapiens, UniProt Q13258)
# Construct: expressed in transfected cells; host or cells: HEK-293(EBNA)
# Sequence (Q13258 whole entry): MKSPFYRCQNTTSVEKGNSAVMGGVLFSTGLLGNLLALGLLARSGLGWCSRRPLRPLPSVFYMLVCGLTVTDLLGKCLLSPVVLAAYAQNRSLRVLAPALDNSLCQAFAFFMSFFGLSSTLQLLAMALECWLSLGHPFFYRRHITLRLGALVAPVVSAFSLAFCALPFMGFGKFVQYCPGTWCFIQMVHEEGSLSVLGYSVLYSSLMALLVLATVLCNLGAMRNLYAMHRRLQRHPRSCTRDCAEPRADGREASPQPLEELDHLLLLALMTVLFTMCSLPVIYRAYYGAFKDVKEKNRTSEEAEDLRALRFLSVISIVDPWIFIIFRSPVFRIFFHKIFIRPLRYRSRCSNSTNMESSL
# method: hDP FLIPR calcium signal study
# Assay type: cell-based
# protocol.conditions: HEK-293(EBNA) cells expressing hDP/Gqs5; read-out: Other Receptors (EC50 in nM) hDP
Give bare numbers, in nM.

// known answers, use as guide
CCCCCC(O)c1ccc(N2C(=O)CC[C@@H]2CCCc2ccc(C(=O)O)s2)cc1 (mixture of isomers)	1230
CCCCCCC(O)c1ccc(N2C(=O)CC[C@@H]2COCc2ccc(C(=O)O)s2)cc1 (mixture of isomers)	5760
CCC(O)c1ccc(N2C(=O)CC[C@@H]2COCc2ccc(C(=O)O)s2)cc1 (mixture of isomers)	7560

Now for another entry.
Q. Provide EC50 value for the following compound: CCCCCCC(O)c1ccc(N2C(=O)CC[C@@H]2CCCc2ccc(C(=O)O)s2)cc1 (mixture of isomers)
A. 105

###

# system.tested: hEP3A/Gqi5 (Homo sapiens)
# Construct: expressed in transfected cells; host or cells: HEK-293(EBNA)
# Sequence (P43115 1-390): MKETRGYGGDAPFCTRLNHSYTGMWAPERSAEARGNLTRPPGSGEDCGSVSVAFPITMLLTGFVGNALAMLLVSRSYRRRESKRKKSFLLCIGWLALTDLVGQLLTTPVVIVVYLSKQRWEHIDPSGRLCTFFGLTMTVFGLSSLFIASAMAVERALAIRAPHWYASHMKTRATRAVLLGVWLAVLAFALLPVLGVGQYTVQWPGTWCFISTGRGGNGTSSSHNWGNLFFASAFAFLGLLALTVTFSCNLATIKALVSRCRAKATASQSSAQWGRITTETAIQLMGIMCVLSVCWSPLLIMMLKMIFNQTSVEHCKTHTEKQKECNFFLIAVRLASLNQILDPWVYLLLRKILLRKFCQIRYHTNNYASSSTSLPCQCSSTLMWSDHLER
# method: hEP3A FLIPR calcium signal study
# Type: cell-based
# protocol.conditions: HEK-293(EBNA) cells expressing hEP3A/Gqi5; read-out: Other Receptors (EC50 in nM) hEP3A
test.readout: EC50 (nM)
Answers are plain numbers, in nM.

CCCCCCC(O)c1ccc(N2C(=O)CC[C@@H]2CCCc2ccc(C(=O)O)s2)cc1 (mixture of isomers)	47

Now for another entry.
Q. Provide EC50 value for the following compound: CCCCCC(O)c1ccc(N2C(=O)CC[C@@H]2CCCc2ccc(C(=O)O)s2)cc1 (mixture of isomers)
A. 155

###

Ki data for EP2 (Homo sapiens, UniProt P43116) follow.
Numbers only, in nM.

// known answers, use as guide
CCC(O)c1ccc(N2C(=O)CC[C@@H]2COCc2ccc(C(=O)O)s2)cc1 (mixture of isomers) [Example 15]	5730
CCCCCC(O)c1ccc(N2C(=O)CC[C@@H]2CCCc2ccc(C(=O)O)s2)cc1 (mixture of isomers) [Example 17]	23
CCCCCCC(O)c1ccc(N2C(=O)CC[C@@H]2COCc2ccc(C(=O)O)s2)cc1 (mixture of isomers) [Example 13]	190

Q. Provide Ki value for the following compound: CCCCC(O)c1ccc(N2C(=O)CC[C@@H]2COCc2ccc(C(=O)O)s2)cc1 (mixture of isomers) [Example 12]
A. 387

Cited source: patent US7592364B2
